Tested on: MCF7 (human breast adenocarcinoma) cell line
Method description: MTT cytotoxicity assay, MCF7 cells
Test parameters: ratio IC50 in Hek-293 to IC50 in MCF7
Examples of compounds with documented Selective index, MCF7 follow.
// keep it numeric: no unit symbol after the value

Completed entries (count: 5):
>>> numeric_readout("O=C1OCC2=C1C(c1ccn[nH]1)C1=C(N2)C(=O)c2ccccc2C1=O (centres unmarked) [Compound 13j]")
1.16
>>> numeric_readout("O=C1OCC2=C1C(c1ccco1)C1=C(N2)C(=O)c2ccccc2C1=O (centres unmarked) [Compound 13c]")
1.20
>>> numeric_readout("O=C1OCC2=C1C(c1coc3ccccc13)C1=C(N2)C(=O)c2ccccc2C1=O (centres unmarked) [Compound 13f]")
1.56
>>> numeric_readout("O=C1OCC2=C1C(c1ccc(Br)o1)C1=C(N2)C(=O)c2ccccc2C1=O (centres unmarked) [Compound 13d]")
3.58
>>> numeric_readout("COc1cc(C2C3=C(COC3=O)NC3=C2C(=O)c2ccccc2C3=O)ccn1 (centres unmarked) [Compound 13k]")
1.86

For the compound shown here, O=C1OCC2=C1C(c1ccoc1)C1=C(N2)C(=O)c2ccccc2C1=O (centres unmarked) [Compound 13b] , give the reported Selective index, MCF7. 1.09

For the compound shown here, Cc1c(C2C3=C(COC3=O)NC3=C2C(=O)c2ccccc2C3=O)cnn1C (centres unmarked) [Compound 13i] , give the reported Selective index, MCF7. 1.18

For the compound shown here, O=C1OCC2=C1C(c1ncccc1F)C1=C(N2)C(=O)c2ccccc2C1=O (centres unmarked) [Compound 13l] , give the reported Selective index, MCF7. 1.39

For the compound shown here, COc1ncc(C(F)(F)F)cc1C1C2=C(COC2=O)NC2=C1C(=O)c1ccccc1C2=O (centres unmarked) [Compound 13m] , give the reported Selective index, MCF7. 2.31

For the compound shown here, O=C1OCC2=C1C(c1csc3ccccc13)C1=C(N2)C(=O)c2ccccc2C1=O (centres unmarked) [Compound 13e] , give the reported Selective index, MCF7. 0.85
